- system under test: T1, EsCas13d, nuclease-dead (Eubacterium siraeum, UniProt B0MS50, R295A;H300A;R849A;H854A)
- T1 sequence: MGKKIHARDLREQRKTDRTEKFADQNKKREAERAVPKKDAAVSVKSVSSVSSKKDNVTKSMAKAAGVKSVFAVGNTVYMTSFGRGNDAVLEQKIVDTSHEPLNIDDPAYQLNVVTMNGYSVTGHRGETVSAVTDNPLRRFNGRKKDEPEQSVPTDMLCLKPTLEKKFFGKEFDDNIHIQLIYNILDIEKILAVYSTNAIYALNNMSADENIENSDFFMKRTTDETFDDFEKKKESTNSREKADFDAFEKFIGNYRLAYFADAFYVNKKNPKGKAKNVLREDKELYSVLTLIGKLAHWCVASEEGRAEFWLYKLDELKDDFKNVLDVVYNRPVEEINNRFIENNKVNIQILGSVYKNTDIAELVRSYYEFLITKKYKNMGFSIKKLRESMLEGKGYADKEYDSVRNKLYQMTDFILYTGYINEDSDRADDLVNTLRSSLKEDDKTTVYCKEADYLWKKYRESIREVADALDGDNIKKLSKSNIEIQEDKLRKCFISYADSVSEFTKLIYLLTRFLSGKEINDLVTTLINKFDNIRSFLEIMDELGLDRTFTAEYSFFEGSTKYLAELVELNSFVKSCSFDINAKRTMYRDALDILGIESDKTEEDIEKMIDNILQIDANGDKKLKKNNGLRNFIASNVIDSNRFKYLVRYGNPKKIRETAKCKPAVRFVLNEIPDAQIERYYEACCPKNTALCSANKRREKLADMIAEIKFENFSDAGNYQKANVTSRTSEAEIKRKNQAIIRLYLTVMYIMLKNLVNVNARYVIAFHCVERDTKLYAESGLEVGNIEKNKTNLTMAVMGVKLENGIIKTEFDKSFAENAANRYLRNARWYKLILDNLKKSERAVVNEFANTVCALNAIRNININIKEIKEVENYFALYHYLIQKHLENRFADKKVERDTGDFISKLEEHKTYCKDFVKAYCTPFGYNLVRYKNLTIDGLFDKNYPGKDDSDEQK
- method description: crRNA (strand 1, pre-loaded); Mg2+; 40 mM Tris-HCl pH 7.5, 150 mM NaCl, 6 mM MgCl2, 1 mM DTT, 0.1% Tween-20, 0.2 mg/ml BSA; 25 C; 10 min per concentration, then washed
- condition details: tags: His6-TwinStrep-SUMO cleaved; N-terminal SNAP kept (SNAP-Surface 488); label: 3' end held by stalled T7 RNA polymerase
pKd: −log10 of the molar value.
quantity kind: pKd

{"binder": "target 3 insA 3' of 21,insC 3' of 3 (mixed) RNA 1: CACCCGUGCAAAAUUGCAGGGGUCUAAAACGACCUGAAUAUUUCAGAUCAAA RNA 2: GGGAAUGGAUCCACAUCUACGAAUUCGUUUUAUGAUCUGAAAUAUUCAGGCUCUGCAGAUCGGAAGAGCACACGU", "assay result": 7.46}
{"binder": "target 1 insU 3' of 12,insA 3' of 3 (mixed) RNA 1: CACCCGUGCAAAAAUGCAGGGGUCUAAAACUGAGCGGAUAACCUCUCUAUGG RNA 2: GGGAAUGGAUCCACAUCUACGAAUUCGUACCAUAGAGAGGUUUAUCCGCUACACCGAGAUCGGAAGAGCACACGU", "assay result": 8.24}
{"binder": "target 1 insC 3' of 18,insU 3' of 6 (mixed) RNA 1: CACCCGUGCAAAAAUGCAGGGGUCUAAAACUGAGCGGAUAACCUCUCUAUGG RNA 2: GGGAAUGGAUCCACAUCUACGAAUUCGUACCAUACGAGAGGUUAUCCUGCUCACCGAGAUCGGAAGAGCACACGU", "assay result": 7.41}
{"binder": "target 2 MT 5'PFS GUU 3'PFS CGC (mixed) RNA 1: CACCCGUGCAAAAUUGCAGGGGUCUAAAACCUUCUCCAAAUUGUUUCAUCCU RNA 2: GGGAAUGGAUCCACAUCUACGAAUUCGUUAGGAUGAAACAAUUUGGAGAAGCGCAGAUCGGAAGAGCACACGU", "assay result": 7.94}
{"binder": "target 3 U2A,U21A (mixed) RNA 1: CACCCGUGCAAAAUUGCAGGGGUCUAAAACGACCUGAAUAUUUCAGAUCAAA RNA 2: GGGAAUGGAUCCACAUCUACGAAUUCGUUUAUGAUCUGAAAUAUUCAGGACUGCAGAUCGGAAGAGCACACGU", "assay result": 7.40}
{"binder": "target 1 insC 3' of 11,insA 3' of 10 (mixed) RNA 1: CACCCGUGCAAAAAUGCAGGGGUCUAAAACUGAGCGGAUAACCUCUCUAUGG RNA 2: GGGAAUGGAUCCACAUCUACGAAUUCGUACCAUAGAGAGGUCUAAUCCGCUCACCGAGAUCGGAAGAGCACACGU", "assay result": 7.52}
{"binder": "target 2 MT 5'PFS UUG 3'PFS UUU (mixed) RNA 1: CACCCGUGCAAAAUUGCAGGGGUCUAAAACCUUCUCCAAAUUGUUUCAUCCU RNA 2: GGGAAUGGAUCCACAUCUACGAAUUCUUGAGGAUGAAACAAUUUGGAGAAGUUUAGAUCGGAAGAGCACACGU", "assay result": 7.59}
{"binder": "target 1 MT 5'PFS GCG 3'PFS UAC (mixed) RNA 1: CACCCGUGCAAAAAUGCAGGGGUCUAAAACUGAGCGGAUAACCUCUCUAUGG RNA 2: GGGAAUGGAUCCACAUCUACGAAUUCGCGCCAUAGAGAGGUUAUCCGCUCAUACAGAUCGGAAGAGCACACGU", "assay result": 7.88}
